Where these numbers come from: ChEMBL document CHEMBL2385022

# experiment notes: Tmax in ICR mouse plasma at 20 mg/kg, po
# Assay type: ADME, organism-based
# Design: dose 20 mg/kg, route oral
measurement label: Tmax (h)
One number for each entry, in h.

For reference, reported Tmax for "COc1cc(/C=C/c2cccc(/C=C/c3ccc(N(C)C)c(OC)c3)c2)ccc1N(C)C" stands at 1

---

# experiment notes: Half life in ICR mouse brain at 20 mg/kg, po
# Assay type: ADME, organism-based
# Parameters: dose 20 mg/kg, route oral
measurement label: half-life (min)
One number for each entry, in min.

For reference, reported half-life for "COc1cc(/C=C/c2cccc(/C=C/c3ccc(N(C)C)c(OC)c3)c2)ccc1N(C)C" stands at 870
